Origin of values: paper PMC10515640

target: 14-3-3σ (Homo sapiens, UniProt P31947); construct: The 14-3-3 σ isoform (full-length for mass spectrometry and fluorescence anisotropy assays, ΔC for crystallography); made in house; host or cells: E. coli Rosetta 2(DE3)pLysS, pPROEX HTb vector; assay: Mass spectrometry dose response, compound binding to 14-3-3σ in the absence of peptide (apo); conditions: 100 nM compound, 100 nM 14-3-3σ, 1h
Sequence (P31947 whole entry, canonical isoform): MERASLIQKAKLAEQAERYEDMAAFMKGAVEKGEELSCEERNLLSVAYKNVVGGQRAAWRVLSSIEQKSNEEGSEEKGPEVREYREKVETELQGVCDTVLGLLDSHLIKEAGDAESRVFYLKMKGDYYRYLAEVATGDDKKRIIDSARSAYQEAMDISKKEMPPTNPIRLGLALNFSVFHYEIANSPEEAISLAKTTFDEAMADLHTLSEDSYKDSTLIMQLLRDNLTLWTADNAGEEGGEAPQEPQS
quantity.measured: Percentage (%) bound of compound to 14-3-3σ, APO 1h
Just the number in %, nothing appended.

[
  {
    "test.smiles": "CC(C)(Oc1ccc(Cl)cc1)C(=O)N1CCC(CNC(=O)CCl)CC1",
    "units": "%",
    "measured": 0.0
  }
]

### Prompt Note Percentage (%) bound of compound to 14-3-3σ, APO 1h for the molecule shown: O=C(CCl)NCC1CCN(C(=O)C2(Nc3ccc(Cl)cc3)CCC(F)(F)CC2)CC1
### Response 0.4

### Prompt Note Percentage (%) bound of compound to 14-3-3σ, APO 1h for the molecule shown: O=C(CCl)NCC1CCN(C(=O)C2(Oc3ccc(Cl)cc3)CCCC2)CC1
### Response 0

### Prompt Note Percentage (%) bound of compound to 14-3-3σ, APO 1h for the molecule shown: C=CS(=O)(=O)NCC1CCN(C(=O)C2(Nc3ccc(Cl)cc3)CCOCC2)CC1
### Response 0

### Prompt Note Percentage (%) bound of compound to 14-3-3σ, APO 1h for the molecule shown: Cl.O=C(CCl)NCC1CCN(C(=O)C2(Nc3ccccc3)CCNCC2)CC1
### Response 0.7

### Prompt Note Percentage (%) bound of compound to 14-3-3σ, APO 1h for the molecule shown: Cl.O=C(CCl)NCC1CCN(C(=O)C2(Oc3ccc(Cl)cc3)CCNCC2)CC1
### Response 0.9

### Prompt Note Percentage (%) bound of compound to 14-3-3σ, APO 1h for the molecule shown: O=C(CCl)NCC1CCN(C(=O)C2(Oc3ccc(Cl)cc3)CCC(F)(F)CC2)CC1
### Response 0

### Prompt Note Percentage (%) bound of compound to 14-3-3σ, APO 1h for the molecule shown: CC(C)(Oc1ccc(Cl)cc1)C(=O)N1CCC(CCNC(=O)CCl)CC1
### Response 1.0

### Prompt Note Percentage (%) bound of compound to 14-3-3σ, APO 1h for the molecule shown: O=C(CCl)NCC1CCN(C(=O)C2(Oc3ccc(Cl)cc3)CCOCC2)CC1
### Response 0

### Prompt Note Percentage (%) bound of compound to 14-3-3σ, APO 1h for the molecule shown: CC(C)(Nc1ccccc1)C(=O)N1CCC(CNC(=O)CCl)CC1
### Response 0

### Prompt Note Percentage (%) bound of compound to 14-3-3σ, APO 1h for the molecule shown: O=C(CCl)NCC1CCN(C(=O)C2(Nc3ccc(Cl)cc3)CC2)CC1
### Response 0.3
